Answer each item with its documented TL1A Binding Level (Early).
# tested_target: T1, human TL1A extracellular domain with N-terminal HIS and FLAG tag (human, UniProt O95150 72-251)
# T1 construct: the whole entry is named
# T1 sequence: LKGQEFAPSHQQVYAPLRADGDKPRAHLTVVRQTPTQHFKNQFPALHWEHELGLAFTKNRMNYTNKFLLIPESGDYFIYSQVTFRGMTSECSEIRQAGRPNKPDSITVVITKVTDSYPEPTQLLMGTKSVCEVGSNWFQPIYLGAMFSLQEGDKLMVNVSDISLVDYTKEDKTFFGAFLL
# procedure_details: SPR Run 6, purified Ab captured on Protein A, TL1A 5 ug/mL, timepoint 44
Give bare numbers, in RU.

Answered examples (2):
binder	units_symbol	TL1A Binding Level (Early)
320-478 (antibody, human IgG1, name in Kabat numbering, V domains shown, human IgG1, lambda) VH: QVQLVQSGAEVKKPGASVKVSCKASGYTFTSYDINWVRQAPGQGLEWMGWLNPNSGNTGYLQKFQGRVTMTADRSTSTAYMELSSLRSEDTAVYYCAREVPETAAFEYWGQGTLVTVSS VL: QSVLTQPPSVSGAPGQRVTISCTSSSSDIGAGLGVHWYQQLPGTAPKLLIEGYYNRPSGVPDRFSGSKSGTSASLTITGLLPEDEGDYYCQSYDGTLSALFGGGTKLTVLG	RU	85
320-462 (antibody, human IgG1, name in Kabat numbering, V domains shown, human IgG1, lambda) VH: QVQLVQSGAEVKKPGASVKVSCKASGYTFTSYDYNWVRQAPGQGLEWMGWLNPNSGNTGYAQKFQGRVTMTADRSTSTAYMELSSLRSEDTAVYYCAREVPETAAFEYWGQGTLVTVSS VL: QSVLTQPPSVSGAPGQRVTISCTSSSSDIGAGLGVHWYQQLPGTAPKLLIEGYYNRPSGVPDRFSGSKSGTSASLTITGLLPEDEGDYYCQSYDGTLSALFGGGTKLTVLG	RU	58

Shift focus to the following entry.
Q: Please report the recorded TL1A Binding Level (Early) for 320-441 (antibody, human IgG1, name in Kabat numbering, V domains shown, human IgG1, lambda) VH: QVQLVQSGAEVKKPGASVKVSCKASGYTFTSDDINWVRQAPGQGLEWMGWLNPNSGNTGYAQKFQGRVTMTADRSTSTAYMELSSLRSEDTAVYYCAREVPETAAFEYWGQGTLVTVSS VL: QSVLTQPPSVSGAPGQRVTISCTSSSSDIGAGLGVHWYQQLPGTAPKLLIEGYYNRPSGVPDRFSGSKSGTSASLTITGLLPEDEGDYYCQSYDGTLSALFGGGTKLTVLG .
Ans: 80
